# measured on: HSP90 (Homo sapiens, UniProt P07900)
# Construct: purchased Stressgen SPP-776
# assay text: HSP90 binding, fluorescence polarization with GM-FITC
# measurement parameters: displacement of GM-FITC 5 nM, 30 nM HSP90, 4 °C, 4 h; read-out: Binding HSP90 (FP) IC50
quantity name: IC50 (µM)
// units = µM; emit number, no label

Field IC50 (entry O=c1c2ccccc2sc2c[n+](Cc3ccccc3)ccc12.[Br-] [Compound 8] ) reads 3.7

---

# assay text: Viable cell number, trypan blue exclusion assay
# Type: cell-based
# measurement parameters: human, NCI-H460 cells, 3.2 μM (GI50), read-out: Number of viable cells (in relation to Blank cells)
quantity name: viability at 48 h, 3.2 µM (%)
// units = %; emit number, no label

Field viability at 48 h, 3.2 µM (entry O=c1c2ccccc2sc2c[n+](Cc3ccccc3)ccc12.[Br-] ) reads 57
